# Test system: COLO 205 colon
# experimental_protocol: NCI tumour cell line growth inhibition, 48 h; in the data active = GI50 below about 0.43 µM; inactive = the rest
Outcome codes: Yes for active, No for inactive

{"columns": ["molecule", "category"],
 "data": [
  ["CC(=O)c1ccc(NCn2nc(-c3ccccc3O)oc2=S)cc1", "No"],
  ["Cc1cc(C)c(S(=O)(=O)Oc2ccccc2[N+](=O)[O-])c(C)c1", "No"],
  ["Cn1c(-c2c(N)n(Cc3ccc(Cl)cc3)c3nc(C#N)c(C#N)nc23)nc2ccccc21", "No"],
  ["Cc1cc2cc(Oc3ccnc(Nc4cccc(CS(=O)(=O)NCCN(C)C)c4)n3)ccc2[nH]1", "No"],
  ["COc1ccc(/C=C2/CCOC2=O)cc1", "No"],
  ["C=C(C)[C@@H]1CC[C@]2(C)[C@H](CC=C3[C@@H]4CC(C)(C)CC[C@]4(C(=O)OC)CC[C@]32C)[C@@]1(C)CC/C(N)=N/O", "No"],
  ["COc1cc(C(C)c2cc3c(cc2OCCOCCOc2cc4c(cc2C(C)c2cc(OC)c(OC)c(OC)c2)OCO4)OCO3)cc(OC)c1OC (centres undefined)", "No"],
  ["CN1CCN(c2ccc3nc(-c4ccc5nc(-c6ccc(C(F)(F)F)cc6)[nH]c5c4)[nH]c3c2)CC1", "No"],
  ["COc1cccc(NC(=O)c2ccc(C(F)(F)F)nc2Nc2ccc(Cl)cc2C)c1", "No"],
  ["COc1cc(C)c(N(C)C(=O)CN(C)C)cc1Nc1nc(Nc2cccc(F)c2C(N)=O)c2cc[nH]c2n1", "No"],
  ["COc1cc(/C=C\\c2cc(/C=C\\c3ccc(O)c(OC)c3)n(C(=O)Nc3ccc(C(F)(F)F)cc3)n2)ccc1O", "No"],
  ["C[C@]1(O)CC(=O)[C@]2(O)C3=C(C=C[C@]2(O)C1)C(=O)c1c(O)cccc1C3=O", "Yes"],
  ["CCCCCn1ncc(-c2c(O)c(O)cc3c(O)c(-c4c(C)cc5c(-c6cnn(CCCCC)n6)c(O)c(O)cc5c4O)c(C)cc23)n1", "No"],
  ["COc1ncnc2c1ncn2C/C(Br)=C(\\Br)CCl", "No"]
]}
